Tested on: RAW-Dual (murine macrophage reporter line)
Experiment: NF-kB reporter (SEAP) activity fold change vs agonist alone; higher = enhanced NF-kB activity
Settings: modulator concentration 10 µM; agonist: MPLA […]
measured_attribute: NF-kB reporter

>>> endpoint_result("O=Cc1cn(CCOc2ccc(Br)cc2)c2ccccc12")
1.59
>>> endpoint_result("CC(C)c1c(C(=O)Nc2ccccc2)c(-c2ccccc2)c(-c2ccc(F)cc2)n1CC[C@@H](O)C[C@@H](O)CC(=O)O [Prestw-1232]")
1.16
>>> endpoint_result("CC(C)(O)CNC(=O)c1cccc([N+](=O)[O-])c1")
0.954
>>> endpoint_result("CC1CC(=O)C2=C(C1)OC(N)=C(C#N)C2c1ccc(F)cc1 (stereo unspecified)")
0.935
>>> endpoint_result("CN1CCN(C2=C(Cl)C(=O)N(c3cccc(Cl)c3)C2=O)CC1")
1.01
>>> endpoint_result("Cc1ccc(-n2nc(C(C)(C)C)cc2NC(=O)NCc2cc(F)ccc2Oc2ccc3c(cnn3CCO)c2)cc1")
0.964
>>> endpoint_result("Nc1nc(NC2CC2)c2ncn([C@H]3C=C[C@@H](CO)C3)c2n1 [Prestw-1512]")
1.02
>>> endpoint_result("CC(C)c1noc(CN2CCC(n3nc(C(F)(F)F)n(C)c3=O)CC2)n1")
0.939
>>> endpoint_result("Cc1ccc(CCC(=O)N2CC(N3C(=O)C4CC=CCC4C3=O)C2)cc1F (stereo unspecified)")
1
>>> endpoint_result("CN(C)[C@@H](CCOc1cccc2ccccc12)c1ccccc1.Cl")
0.66
>>> endpoint_result("Cc1ccc(C(=O)NC(=Cc2cccc3ccccc23)C(=O)N2CCCC2)cc1")
0.974
>>> endpoint_result("Cl.Cl.O=C(O)COCCN1CCN(C(c2ccccc2)c2ccc(Cl)cc2)CC1 (stereo unspecified)")
0.892
>>> endpoint_result("CCOC(=O)C1=C(C)N(c2ccc(OC)cc2)C(=O)C1=Cc1ccc(C(C)C)cc1")
0.804
>>> endpoint_result("CS(=O)(=O)N(CC(=O)NC1CC1)c1cccc2ccccc12")
0.901
>>> endpoint_result("O=S1(=O)N=C(Oc2ccc3ccccc3c2)c2ccccc21")
1.22
>>> endpoint_result("O=C(COc1ccc2ccccc2c1)NCC#CCN1CCCCC1")
1.07
>>> endpoint_result("COC(=O)c1cc(Br)ccc1NC(=O)c1ccccc1")
1.03
>>> endpoint_result("COc1ccc(-c2oc3ccc(OC)cc3c2C(=O)Nc2ccccc2Cl)cc1")
1.42
>>> endpoint_result("CCOC(=O)C(CCCOc1c(C)cc(Cl)cc1C)C(=O)OCC")
1.08
>>> endpoint_result("CCN(CC)S(=O)(=O)c1ccc(C(=O)Nc2cc(C)nn2-c2nc(C)c(C)c(=O)[nH]2)cc1")
0.434
>>> endpoint_result("COc1ccc(Nc2nc(Nc3ccc4ncccc4c3)nc(N3CCOCC3)n2)cc1")
2.85

###

Test system: RAW-Dual (murine macrophage reporter line)
Assay: viability score (confluency relative to resting cells, overnight) (fraction); higher = more viable, active = viable (0.7 or more)
Conditions: modulator concentration 10 µM
measured_attribute: viability score

>>> endpoint_result("COc1ccc(C2SCc3cc(C)c(C)cc3CS2)cc1OC")
1.01
>>> endpoint_result("COc1cc(C2Oc3cc(C4Oc5cc(O)cc(O)c5C(=O)C4O)ccc3OC2CO)ccc1O (stereo unspecified)")
0.981
>>> endpoint_result("C(#Cc1ccc(C=Nc2nccs2)cc1)c1ccccc1")
0.997
>>> endpoint_result("CCCCc1oc2ccc(NS(C)(=O)=O)cc2c1C(=O)c1ccc(OCCCN(CCCC)CCCC)cc1.Cl")
0.29
>>> endpoint_result("CC(=O)Nc1ccc(NC(=S)NC(=O)C=Cc2ccc(Cl)cc2Cl)cc1")
1
>>> endpoint_result("O=C(Cc1ccc(NC(=O)c2ccc(OC(F)(F)F)cc2)cc1)NCC(F)(F)F")
0.999
>>> endpoint_result("COc1ccc(OC)c(CN2CCCC(O)C2)c1 (stereo unspecified)")
1
>>> endpoint_result("COc1cc2c(Oc3ccc4[nH]c(C)cc4c3F)ncnc2cc1OCCCN1CCCC1")
1
>>> endpoint_result("Oc1ccc2ccccc2c1SSc1c(O)ccc2ccccc12")
0.963
>>> endpoint_result("O=C(C(c1ccccc1)c1ccccc1)N1CCC(n2nccn2)CC1")
0.999
>>> endpoint_result("Cl.OC(CCCN1CCCCC1)(c1ccccc1)c1ccccc1")
0.998
